Could you please report measured EC50 for the items listed next?
Target: wild-type nAChR α7 receptors (Homo sapiens)
Sequence (P36544 23-502): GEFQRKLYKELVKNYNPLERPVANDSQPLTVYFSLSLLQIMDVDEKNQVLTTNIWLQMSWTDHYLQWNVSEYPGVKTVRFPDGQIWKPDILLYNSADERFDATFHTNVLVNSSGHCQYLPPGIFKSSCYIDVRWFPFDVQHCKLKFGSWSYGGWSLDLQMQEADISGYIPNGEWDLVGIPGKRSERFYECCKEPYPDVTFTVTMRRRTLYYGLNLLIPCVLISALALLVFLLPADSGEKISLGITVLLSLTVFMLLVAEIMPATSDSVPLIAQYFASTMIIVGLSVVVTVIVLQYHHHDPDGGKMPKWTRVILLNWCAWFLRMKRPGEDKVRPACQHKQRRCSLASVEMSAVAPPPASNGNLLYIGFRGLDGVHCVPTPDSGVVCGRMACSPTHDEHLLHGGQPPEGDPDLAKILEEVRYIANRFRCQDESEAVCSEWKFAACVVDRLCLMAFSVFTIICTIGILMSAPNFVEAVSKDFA
Test: Positive modulation of nAChR α7 currents in Xenopus laevis oocytes (two-electrode voltage clamp)
Settings: nAChR α7 expressed in Xenopus laevis oocytes; clamped at −60 mV; 100 μM acetylcholine; test compound 0.01-31.6 μM; read-out: calculated EC50 (positive modulation of acetylcholine-induced current)
Experimental: In this example the positive modulation of wild-type nAChR α7 receptors by Compounds 3, 7 and 8, representative of the invention, was determined using nAChR a7 receptors heterologously expressed in Xenopus laevis oocytes. The electrical current through the nAChR α7 channel was measured using conventional two-electrode voltage clamp and nAChR α7 currents were activated by applying pulses of agonist-containing solution onto the nAChR α7 expressing oocyte. […]
Give the value; after it, write the unit.

OCc1c(-c2ccc(O)cc2)nnn1-c1ccc(C(F)(F)F)cc1Cl [Compound 8] : 11 µM
COc1ccc(-c2nnn(-c3ccc(C(F)(F)F)cc3Cl)c2CO)cc1 [Compound 7] : 17 µM

Turning now to a further compound:
Form field: EC50 recorded for Cc1c(-c2ccc(O)cc2)nnn1-c1ccc(C(F)(F)F)cc1Cl [Compound 3] with wild-type nAChR α7 receptors (Homo sapiens) (enter value)
14 µM
